The values you see were collected from patent US4471131A.

test system: Canada Thistle; experiment: post-emergence herbicidal activity, greenhouse; type: in vivo; conditions: Table II; 2 WAT; 5.6 kg/h; formulated in anhydrous tetrahydrofuran
Readout name: Plant Response Index (A)

>>> value_observed("CCCCOC(=O)CNCP(=O)(O)O[Si](C)(C)C(C)(C)C")
"1 (25-49% inhibition)"
>>> value_observed("CCCCOC(=O)CNCP(=O)(O)O[Si](c1ccccc1)(c1ccccc1)C(C)(C)C")
"0 (0-24% inhibition)"
>>> value_observed("CCOC(=O)CNCP(=O)(O)O[Si](c1ccccc1)(c1ccccc1)C(C)(C)C")
"1 (25-49% inhibition)"
>>> value_observed("CC(C)(C)[Si](OP(=O)(O)CNCC(=O)O)(c1ccccc1)c1ccccc1")
"0 (0-24% inhibition)"

====

test system: Morningglory; test: post-emergence herbicidal activity, greenhouse; format: in vivo; conditions: Table II; 4 WAT; 5.6 kg/h
# Plant Response Index (D) per entry
Readout name: Plant Response Index (D)

>>> value_observed("CC(C)(C)[Si](OP(=O)(O)CNCC(=O)OCCCl)(c1ccccc1)c1ccccc1 [Ex. 8, Hydrate]")
"2 (50-74% inhibition)"
>>> value_observed("CC(C)(C)[Si](OP(=O)(O)CNCC(=O)O)(c1ccccc1)c1ccccc1")
"1 (25-49% inhibition)"
>>> value_observed("CCCCOC(=O)CNCP(=O)(O)O[Si](c1ccccc1)(c1ccccc1)C(C)(C)C")
"2 (50-74% inhibition)"
>>> value_observed("CCOC(=O)CNCP(=O)(O)O[Si](c1ccccc1)(c1ccccc1)C(C)(C)C")
"2 (50-74% inhibition)"

====

tested on: Yellow Nutsedge; experiment: post-emergence herbicidal activity, greenhouse; type: in vivo; conditions: Table II; 2 WAT; 11.2 kg/h; formulated in anhydrous tetrahydrofuran
Readout name: Plant Response Index (G)

>>> value_observed("CCCCOC(=O)CNCP(=O)(O)O[Si](C)(C)C(C)(C)C [Ex. 3]")
"1 (25-49% inhibition)"
>>> value_observed("CCCCOC(=O)CNCP(=O)(O)O[Si](c1ccccc1)(c1ccccc1)C(C)(C)C [Ex. 6]")
"0 (0-24% inhibition)"
>>> value_observed("CC(C)(C)[Si](OP(=O)(O)CNCC(=O)O)(c1ccccc1)c1ccccc1 [Ex. 5]")
"0 (0-24% inhibition)"
>>> value_observed("CCOC(=O)CNCP(=O)(O)O[Si](c1ccccc1)(c1ccccc1)C(C)(C)C [Ex. 7]")
"1 (25-49% inhibition)"

====

# Plant Response Index (K) per entry
test system: Barnyardgrass; assay: post-emergence herbicidal activity, greenhouse; type: in vivo; conditions: Table III; 2 WAT; .28 kg/h; formulated in anhydrous tetrahydrofuran
Readout name: Plant Response Index (K)

>>> value_observed("CCOC(=O)CNCP(=O)(O)O[Si](c1ccccc1)(c1ccccc1)C(C)(C)C")
"1 (25-49% inhibition)"
>>> value_observed("CCCCOC(=O)CNCP(=O)(O)O[Si](C)(C)C(C)(C)C")
"1 (25-49% inhibition)"
>>> value_observed("CC(C)(C)[Si](OP(=O)(O)CNCC(=O)O)(c1ccccc1)c1ccccc1")
"0 (0-24% inhibition)"
>>> value_observed("CCCCOC(=O)CNCP(=O)(O)O[Si](c1ccccc1)(c1ccccc1)C(C)(C)C")
"0 (0-24% inhibition)"
